# runDescription: chemical genetic growth profiling, strain panel (AID 1159580);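 note: tested at 20 µM; growth read once vehicle control cultures reached saturation at 30 °C; 1 = growth at the plate median or of vehicle wells; lower values mean less growth of the strain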
# testParameters: S. cerevisiae deletion strains, growth OD, locus YJR066W, strain TOR1, stronger effect = lower value
Among all 5,500 compounds or so, about 2,000 (36%) were called active. About 18% were inconclusive and are not listed. This is one part of the list.
Could you please report measured normalized growth for the items listed next?
Give bare numbers.

A selection of reference data follows.
| compound | normalized growth |
| --- | --- |
| C[C@@H](N)CO | 0.914 |
| Cc1c(N(C)C)c(=O)n(-c2ccccc2)n1C | 0.972 |
| CC(=O)CC(=O)CCC(=O)O | 0.962 |
| CCCCCC(C)N (stereo unspecified) | 0.942 |
| COc1ccc2c(c1)OC[C@@H](Cc1ccc(OC)c(OC)c1)[C@@H]2O | 0.975 |

# batch: return normalized growth for each of the 6 compounds below
1. COc1cccc([C@]2(O)CCCC[C@H]2CN(C)C)c1
2. Cc1c(Cl)cccc1NC(=S)N1CCCN(c2ccc(C(F)(F)F)cc2[N+](=O)[O-])CC1
3. COc1ccc2c(c1)OC[C@@H](Cc1ccc(OC)c(OC)c1)[C@H]2O
4. Cc1c(Cl)cccc1NC(=S)N1CCCN(c2nc3ccc(Cl)cc3s2)CC1
5. O=C(/C=C/c1ccccc1)O[C@H]1C[C@@H](O)[C@]2(O)C=CO[C@@H](O[C@@H]3O[C@H](CO)[C@@H](O)[C@H](O)[C@H]3O)[C@H]12
6. O=C(O)C1CC([C@@H]2CCCCN2)CN2CCCCC12 (stereo partly specified)

*A*
0.935
1.02
0.913
0.947
0.92
0.941

* * *

# runDescription: chemical genetic growth profiling, strain panel (AID 1159580)
# testParameters: S. cerevisiae deletion strains, growth OD, locus YNL071W, strain lat1, stronger effect = lower value
Screen size: about 5,500 compounds; about 2,000 (36%) were called active. Roughly 18% stayed inconclusive and do not appear here. This is one part of the list.
Could you please report measured normalized growth for the items listed next?

# batch: return normalized growth for each of the 5 compounds below
1. CCC(C(=O)O)c1ccccc1 (centres undefined)
2. CC[C@H]1OC(=O)C[C@@H](O)[C@H](C)[C@@H](O[C@@H]2O[C@H](C)[C@@H](O[C@H]3C[C@@](C)(O)[C@@H](O)[C@H](C)O3)[C@H](N(C)C)[C@H]2O)[C@@H](CC=O)C[C@@H](C)C(=O)/C=C/C(C)=C/[C@@H]1CO[C@@H]1O[C@H](C)[C@@H](O)[C@@H](OC)[C@H]1OC
3. CC(C)(CO)C(O)C(=O)NCCCO (centres undefined)
4. NC/C=C/C(=O)O
5. c1ccc(CN(CC2=NCCN2)c2ccccc2)cc1

*A*
["0.989 (inactive)", "0.993 (inactive)", "1.02 (inactive)", "1.01 (inactive)", "0.999 (inactive)"]

# batch: return normalized growth for each of the 3 compounds below
1. C=CC1=C(C(=O)O)N2C(=O)[C@@H](NC(=O)/C(=N/O)c3csc(N)n3)[C@H]2SC1
2. COc1c2c(c(CC=C(C)C)c3oc(=O)c(-c4ccc(O)cc4)c(O)c13)OC(C)(C)C=C2
3. Cc1cccc(Nc2cc(Cl)nc(SCC(=O)O)n2)c1C

*A*
["1.02 (inactive)", "0.484 (active)", "0.985 (inactive)"]

// normalized growth lookup, compound = CC(=O)O[C@]1(C(C)=O)CCC2C3C[C@H](C)C4=CC(=O)CC[C@]4(C)C3CC[C@@]21C (some centres undefined) , result: 0.876 (active)

* * *

# runDescription: chemical genetic growth profiling, strain panel (AID 1159580);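 note: tested at 20 µM; growth read once vehicle control cultures reached saturation at 30 °C; 1 = growth at the plate median or of vehicle wells; lower values mean less growth of the strain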
# testParameters: S. cerevisiae deletion strains, growth OD, locus YKL085W, strain MDH1 (second series)
About 2,000 (36%) of roughly 5,500 compounds were called active. Inconclusive results (about 18%) are left out. Rule as the data show it: active = normalized growth mostly below about 0.91 (no sharp cut-off); inconclusive = no clear call, values can overlap the other calls; inactive = mostly above about 0.92. Some of the results follow.
Answer with one of the outcomes given here: active, inactive

For orientation, consider the following solved cases.
| compound | discreteLabel |
| --- | --- |
| Nc1nc2[nH]c(=O)c(=O)[nH]c2c(=O)[nH]1 | inactive |
| CCc1nc(N)nc(N)c1-c1ccc(Cl)cc1 | inactive |
| CC(=O)O[C@]1(C(C)=O)CCC2C3C=C(C)C4=CC(=O)CCC4(C)C3CCC21C (some centres not stated) | active |
| C1CCc2nnnn2CC1 | inactive |
| c1ccc(CC2=NCCN2)cc1 | active |

*Q* What did the test return for OCC(O)Cc1ccc2c(c1)OCO2 (configuration not stated) ?
*A* inactive

*Q* What did the test return for C=C(C)/C=C1/C=CC(=O)C(C)=C1 ?
*A* active

* * *

# runDescription: chemical genetic growth profiling, strain panel (AID 1159580);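 note: tested at 20 µM; growth read once vehicle control cultures reached saturation at 30 °C; 1 = growth at the plate median or of vehicle wells; lower values mean less growth of the strain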
# testParameters: S. cerevisiae deletion strains, growth OD, locus YPL240C, strain hsp82, stronger effect = lower value
In all, about 5,500 compounds went through this assay and about 2,000 (36%) were called active. Roughly 18% stayed inconclusive and do not appear here. Some of the results follow.
Could you please report measured normalized growth for the items listed next?
Numbers only.

A selection of reference data follows.
| compound | assayValue |
| --- | --- |
| C=C1CC[C@H](O)C/C1=C/C=C1\CCC[C@]2(C)C([C@H](C)/C=C/[C@H](C)C(C)C)CC[C@@H]12 (some centres not stated) | 1.01 |
| COc1ccc2cc1Oc1ccc(cc1)C[C@H]1c3cc(c(OC)cc3CCN1C)Oc1c(OC)c(OC)cc3c1[C@H](C2)N(C)CC3 | 1.01 |

# batch: return normalized growth for each of the 6 compounds below
1. COc1c(O)cc2oc3cc(O)c(CC=C(C)C)c(O)c3c(=O)c2c1CC=C(C)C
2. Cc1c(N(C)C)c(=O)n(-c2ccccc2)n1C
3. Cc1cc(=O)c2c(O)c(C)c(O)cc2o1
4. C[N+](C)(C)CC(=O)[O-]
5. CN=C(NC#N)NCCSCc1nc(N=C(N)N)cs1
6. CCC(C(=O)O)c1ccccc1 (configuration not stated)

*A*
1: 0.951; 2: 0.99; 3: 1.01; 4: 0.976; 5: 0.971; 6: 0.988

* * *

# runDescription: chemical genetic growth profiling, strain panel (AID 1159580);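 note: tested at 20 µM; growth read once vehicle control cultures reached saturation at 30 °C; 1 = growth at the plate median or of vehicle wells; lower values mean less growth of the strain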
# testParameters: S. cerevisiae deletion strains, growth OD, locus YPL051W, strain arl3
About 2,000 (36%) of roughly 5,500 compounds were called active. About 18% were inconclusive and are not listed. Rule as the data show it: active = normalized growth mostly below about 0.91 (no sharp cut-off); inconclusive = no clear call, values can overlap the other calls; inactive = mostly above about 0.92. The list shows a part of the results.
Answer with one of the outcomes given here: label 1 (active), label 0 (inactive)

For orientation, consider the following solved cases.
| compound | discreteLabel |
| --- | --- |
| CN=C(NC#N)NCCSCc1nc(N=C(N)N)cs1 | label 0 |
| CC1(C)C2CC[C@]3(C)C(C(=O)C=C4[C@@H]5C[C@@](C)(C(=O)O)CC[C@]5(C)CC[C@]43C)[C@@]2(C)CC[C@@H]1O (some centres not stated) | label 0 |

*Q* What did the test return for C[N+](C)(C)CCOP(=O)([O-])OP(=O)(O)OC[C@H]1OC(n2ccc(N)nc2=O)[C@H](O)[C@@H]1O (some centres not stated) ?
*A* label 0

*Q* What did the test return for CCCCOc1ccc(OCCCN2CCOCC2)cc1 ?
*A* label 1

*Q* What did the test return for OC(CCN1CCCCC1)(c1ccccc1)c1ccccc1 ?
*A* label 0

*Q* What did the test return for COc1cccc2c1CCC1CC(=O)CCC21C (configuration not stated) ?
*A* label 0

*Q* What did the test return for CCCCCCCCCCCCCCCCOP(=O)([O-])OCC[N+](C)(C)C ?
*A* label 1

*Q* What did the test return for O=C1C[C@@H](c2ccc(O)cc2)Oc2cc(O)cc(O)c21 ?
*A* label 0

*Q* What did the test return for CC(C)(C)CC(C)(C)c1ccc(OCCOCC[N+](C)(C)Cc2ccccc2)cc1 ?
*A* label 1

*Q* What did the test return for COc1ccc2c(c1)[C@@]1(C)CCC(=O)C[C@H]1CC2 ?
*A* label 0

*Q* What did the test return for COc1ccc2c(c1)C1(C)CCC(=O)CC1CC2 (configuration not stated) ?
*A* label 0

*Q* What did the test return for O=C1CC(c2ccc(O)c(O)c2)Oc2cc(O)cc(O)c21 (configuration not stated) ?
*A* label 0

*Q* What did the test return for COC(=O)[C@@H]1C(O)CC[C@H]2CN3CCc4c([nH]c5ccccc45)[C@@H]3C[C@@H]21 (some centres not stated) ?
*A* label 0

*Q* What did the test return for O=C(Cc1ccccc1)NO ?
*A* label 0

*Q* What did the test return for CCc1nc(N)nc(N)c1-c1ccc(Cl)cc1 ?
*A* label 0

*Q* What did the test return for CC1(C)C2CC[C@]3(C)C(C(=O)C=C4[C@@H]5C[C@@](C)(C(=O)O)CC[C@]5(C)CC[C@]43C)[C@@]2(C)CC[C@@H]1OC(=O)CCC(=O)O (some centres not stated) ?
*A* label 0

*Q* What did the test return for Cc1cc(C(C)(C)CC(C)(C)C)ccc1OCCOCC[N+](C)(C)Cc1ccccc1 ?
*A* label 1
